Overview of reported pIC50 across a group of compounds:
biological target: cloned human δ receptors (HDELTA) (Homo sapiens, UniProt P41143); construct: expressed in transfected cells; host or cells: human 293S cells (geneticin-selected), membranes; assay: Binding assay, membranes of 293S cells expressing cloned human δ receptor
Sequence (P41143 whole entry): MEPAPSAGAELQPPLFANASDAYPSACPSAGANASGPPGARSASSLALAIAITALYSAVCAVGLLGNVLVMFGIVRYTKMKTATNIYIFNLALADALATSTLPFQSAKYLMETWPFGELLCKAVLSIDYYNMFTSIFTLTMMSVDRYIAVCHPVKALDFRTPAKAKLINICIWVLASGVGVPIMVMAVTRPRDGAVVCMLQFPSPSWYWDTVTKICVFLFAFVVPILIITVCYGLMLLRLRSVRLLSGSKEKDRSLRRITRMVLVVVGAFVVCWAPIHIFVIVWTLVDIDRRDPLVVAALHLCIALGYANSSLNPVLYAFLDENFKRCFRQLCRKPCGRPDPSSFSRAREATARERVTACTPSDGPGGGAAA
pIC50: −log10 of the molar value. Structures can show the parent of a compound that is named as a salt.

compound: CCN(CC)C(=O)c1ccc(C(c2cccc3cccnc23)N2CCN(Cc3ncc[nH]3)CC2)cc1.Cl.Cl (stereo not drawn) [Example 17, Dihydrochloride]
measurement_target: cloned human δ receptors (HDELTA) (Homo sapiens, UniProt P41143)
pIC50: 8.96
//
compound: CCN(CC)C(=O)c1ccc(C(c2cccc3cccnc23)N2CCN(Cc3ccccn3)CC2)cc1 (stereo not drawn) [Example 12, Dihydrochloride]
measurement_target: cloned human δ receptors (HDELTA) (Homo sapiens, UniProt P41143)
pIC50: 9.16
//
compound: CCN(CC)C(=O)c1ccc(C(c2cccc3cccnc23)N2CCN(Cc3ccoc3)CC2)cc1 (stereo not drawn)
measurement_target: cloned human δ receptors (HDELTA) (Homo sapiens, UniProt P41143)
pIC50: 9.10
//
compound: CCN(CC)C(=O)c1ccc(C(c2cccc3cccnc23)N2CCN(Cc3cccs3)CC2)cc1.Cl.Cl (stereo not drawn) [Example 16, Dihydrochloride]
measurement_target: cloned human δ receptors (HDELTA) (Homo sapiens, UniProt P41143)
pIC50: 8.82
//
compound: CCN(CC)C(=O)c1ccc(C(c2cccc3cccnc23)N2CCN(Cc3ccco3)CC2)cc1 (stereo not drawn)
measurement_target: cloned human δ receptors (HDELTA) (Homo sapiens, UniProt P41143)
pIC50: 9.74
//
compound: CCN(CC)C(=O)c1ccc(C(c2cccc3cccnc23)N2CCN(Cc3ccsc3)CC2)cc1 (stereo not drawn)
measurement_target: cloned human δ receptors (HDELTA) (Homo sapiens, UniProt P41143)
pIC50: 8.99

* * *

Overview of reported EC50 across a group of molecules:
molecular target: HDELTA (Homo sapiens); construct: expressed in transfected cells; assay: Functional agonism HDELTA (EC50, % EMAX); type: biochemical
Structures can show the parent of a compound that is named as a salt.

molecule: CCN(CC)C(=O)c1ccc(C(c2cccc3cccnc23)N2CCN(Cc3cccs3)CC2)cc1.Cl.Cl (stereo not drawn) [Example 16, Dihydrochloride]
measurement_target: HDELTA (Homo sapiens)
EC50 (nM): 2.39
--
molecule: CCN(CC)C(=O)c1ccc(C(c2cccc3cccnc23)N2CCN(Cc3ccccn3)CC2)cc1 (stereo not drawn) [Example 12, Dihydrochloride]
measurement_target: HDELTA (Homo sapiens)
EC50 (nM): 0.76
--
molecule: CCN(CC)C(=O)c1ccc(C(c2cccc3cccnc23)N2CCN(Cc3ncc[nH]3)CC2)cc1.Cl.Cl (stereo not drawn) [Example 17, Dihydrochloride]
measurement_target: HDELTA (Homo sapiens)
EC50 (nM): 3.03
--
molecule: CCN(CC)C(=O)c1ccc(C(c2cccc3cccnc23)N2CCN(Cc3ccco3)CC2)cc1 (stereo not drawn) [Example 14]
measurement_target: HDELTA (Homo sapiens)
EC50 (nM): 0.76
--
molecule: CCN(CC)C(=O)c1ccc(C(c2cccc3cccnc23)N2CCN(Cc3ccoc3)CC2)cc1 (stereo not drawn) [Example 15]
measurement_target: HDELTA (Homo sapiens)
EC50 (nM): 0.79
--
molecule: CCN(CC)C(=O)c1ccc(C(c2cccc3cccnc23)N2CCN(Cc3ccsc3)CC2)cc1 (stereo not drawn) [Example 13]
measurement_target: HDELTA (Homo sapiens)
EC50 (nM): 1.44

* * *

biological target: MOUSE BRAIN (Mus musculus, UniProt P32300); assay: Functional agonism mouse brain (EC50, % EMAX)
Sequence (P32300 whole entry): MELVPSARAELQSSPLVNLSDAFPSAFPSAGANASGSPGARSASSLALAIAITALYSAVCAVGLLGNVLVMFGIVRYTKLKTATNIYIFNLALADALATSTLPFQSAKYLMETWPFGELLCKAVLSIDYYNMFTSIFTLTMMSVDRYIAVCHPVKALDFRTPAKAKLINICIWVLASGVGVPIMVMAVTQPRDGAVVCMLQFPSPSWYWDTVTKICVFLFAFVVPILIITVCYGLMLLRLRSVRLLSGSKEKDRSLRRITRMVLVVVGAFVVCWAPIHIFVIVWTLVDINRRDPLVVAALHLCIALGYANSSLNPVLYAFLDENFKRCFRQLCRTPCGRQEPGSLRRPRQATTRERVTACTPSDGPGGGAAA

compound: CCN(CC)C(=O)c1ccc(C(c2cccc3cccnc23)N2CCN(Cc3nc[nH]n3)CC2)cc1.Cl.Cl (stereo not shown) [Example 19, Dihydrochloride]
measurement_target: MOUSE BRAIN (Mus musculus, UniProt P32300)
EC50: 1370 nM

* * *

biological target: MOUSE BRAIN (Mus musculus); test: Functional agonism mouse brain (EC50, % EMAX); format: biochemical
Where a name gives a salt, the structure may show the parent alone.

molecule: CCN(CC)C(=O)c1ccc(C(c2cccc3cccnc23)N2CCN(Cc3ccco3)CC2)cc1 (stereo not shown) [Example 14]
measurement_target: MOUSE BRAIN (Mus musculus)
Emax [%]: 106

molecule: CCN(CC)C(=O)c1ccc(C(c2cccc3cccnc23)N2CCN(Cc3ncc[nH]3)CC2)cc1.Cl.Cl (stereo not shown) [Example 17, Dihydrochloride]
measurement_target: MOUSE BRAIN (Mus musculus)
Emax [%]: 92.5

molecule: CCN(CC)C(=O)c1ccc(C(c2cccc3cccnc23)N2CCN(Cc3cccs3)CC2)cc1.Cl.Cl (stereo not shown) [Example 16, Dihydrochloride]
measurement_target: MOUSE BRAIN (Mus musculus)
Emax [%]: 98.4

molecule: CCN(CC)C(=O)c1ccc(C(c2cccc3cccnc23)N2CCN(Cc3ccsc3)CC2)cc1 (stereo not shown) [Example 13]
measurement_target: MOUSE BRAIN (Mus musculus)
Emax [%]: 113

molecule: CCN(CC)C(=O)c1ccc(C(c2cccc3cccnc23)N2CCN(Cc3ccccn3)CC2)cc1 (stereo not shown) [Example 12, Dihydrochloride]
measurement_target: MOUSE BRAIN (Mus musculus)
Emax [%]: 91.3

molecule: CCN(CC)C(=O)c1ccc(C(c2cccc3cccnc23)N2CCN(Cc3ccoc3)CC2)cc1 (stereo not shown) [Example 15]
measurement_target: MOUSE BRAIN (Mus musculus)
Emax [%]: 110

molecule: CCN(CC)C(=O)c1ccc(C(c2cccc3cccnc23)N2CCN(Cc3c[nH]cn3)CC2)cc1 (stereo not shown) [Example 18, Dihydrochloride]
measurement_target: MOUSE BRAIN (Mus musculus)
Emax [%]: 108

* * *

experiment: Metabolic stability RLM (% remaining); format: in vitro ADME, rat; conditions: 100000
Structures can show the parent of a compound that is named as a salt.
measurement_kind: RLM 100000 % rem. (% rem.)

molecule: CCN(CC)C(=O)c1ccc(C(c2cccc3cccnc23)N2CCN(Cc3cccs3)CC2)cc1.Cl.Cl (stereo not drawn)
numeric_readout: 64.5
--
molecule: CCN(CC)C(=O)c1ccc(C(c2cccc3cccnc23)N2CCN(Cc3ncc[nH]3)CC2)cc1.Cl.Cl (stereo not drawn)
numeric_readout: 75
--
molecule: CCN(CC)C(=O)c1ccc(C(c2cccc3cccnc23)N2CCN(Cc3ccccn3)CC2)cc1 (stereo not drawn) [Example 12, Dihydrochloride]
numeric_readout: 66
--
molecule: CCN(CC)C(=O)c1ccc(C(c2cccc3cccnc23)N2CCN(Cc3ccco3)CC2)cc1 (stereo not drawn)
numeric_readout: 84.5
--
molecule: CCN(CC)C(=O)c1ccc(C(c2cccc3cccnc23)N2CCN(Cc3ccoc3)CC2)cc1 (stereo not drawn)
numeric_readout: 86
--
molecule: CCN(CC)C(=O)c1ccc(C(c2cccc3cccnc23)N2CCN(Cc3ccsc3)CC2)cc1 (stereo not drawn)
numeric_readout: 62.667

* * *

molecular target: RAT BRAIN (Rattus norvegicus); assay: Functional agonism rat brain (EC50, % EMAX)
Sequence (P33533 whole entry): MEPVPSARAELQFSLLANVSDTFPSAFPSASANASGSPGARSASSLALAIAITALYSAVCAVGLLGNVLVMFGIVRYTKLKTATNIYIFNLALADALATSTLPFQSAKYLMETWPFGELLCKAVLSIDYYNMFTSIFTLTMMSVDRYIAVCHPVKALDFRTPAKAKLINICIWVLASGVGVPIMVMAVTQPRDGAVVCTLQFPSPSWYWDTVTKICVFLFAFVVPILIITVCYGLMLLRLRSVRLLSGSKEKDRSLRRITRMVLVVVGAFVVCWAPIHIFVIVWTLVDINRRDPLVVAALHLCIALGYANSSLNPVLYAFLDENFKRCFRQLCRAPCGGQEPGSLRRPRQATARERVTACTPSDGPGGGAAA
pEC50: −log10 of the molar value.

compound: CCN(CC)C(=O)c1ccc(C(c2cccc3cccnc23)N2CCN(Cc3nc[nH]n3)CC2)cc1.Cl.Cl (stereo not shown) [Example 19, Dihydrochloride]
pEC50: 5.55

* * *

experiment: Metabolic stability MLM (% remaining); type: in vitro ADME, mouse; settings: 100000
Structures can show the parent of a compound that is named as a salt.

compound: CCN(CC)C(=O)c1ccc(C(c2cccc3cccnc23)N2CCN(Cc3ccccn3)CC2)cc1 (stereo not drawn) [Example 12, Dihydrochloride]
unit_info: % rem.
MLM 100000 % rem.: 53.5
--
compound: CCN(CC)C(=O)c1ccc(C(c2cccc3cccnc23)N2CCN(Cc3ncc[nH]3)CC2)cc1.Cl.Cl (stereo not drawn)
unit_info: % rem.
MLM 100000 % rem.: 21.5
--
compound: CCN(CC)C(=O)c1ccc(C(c2cccc3cccnc23)N2CCN(Cc3cccs3)CC2)cc1.Cl.Cl (stereo not drawn)
unit_info: % rem.
MLM 100000 % rem.: 46.5
--
compound: CCN(CC)C(=O)c1ccc(C(c2cccc3cccnc23)N2CCN(Cc3ccoc3)CC2)cc1 (stereo not drawn)
unit_info: % rem.
MLM 100000 % rem.: 68
--
compound: CCN(CC)C(=O)c1ccc(C(c2cccc3cccnc23)N2CCN(Cc3ccco3)CC2)cc1 (stereo not drawn)
unit_info: % rem.
MLM 100000 % rem.: 49
--
compound: CCN(CC)C(=O)c1ccc(C(c2cccc3cccnc23)N2CCN(Cc3ccsc3)CC2)cc1 (stereo not drawn)
unit_info: % rem.
MLM 100000 % rem.: 71.667

* * *

Overview of reported MLM 10000 % rem. across a group of compounds:
test: Metabolic stability MLM (% remaining); assay type: in vitro ADME, mouse; conditions: 10000
Structures can show the parent of a compound that is named as a salt.

compound: CCN(CC)C(=O)c1ccc(C(c2cccc3cccnc23)N2CCN(Cc3cccs3)CC2)cc1.Cl.Cl (stereo not drawn)
MLM 10000 % rem. (% rem.): 0.5

compound: CCN(CC)C(=O)c1ccc(C(c2cccc3cccnc23)N2CCN(Cc3ccccn3)CC2)cc1 (stereo not drawn) [Example 12, Dihydrochloride]
MLM 10000 % rem. (% rem.): 0

compound: CCN(CC)C(=O)c1ccc(C(c2cccc3cccnc23)N2CCN(Cc3ncc[nH]3)CC2)cc1.Cl.Cl (stereo not drawn)
MLM 10000 % rem. (% rem.): 0

compound: CCN(CC)C(=O)c1ccc(C(c2cccc3cccnc23)N2CCN(Cc3ccoc3)CC2)cc1 (stereo not drawn)
MLM 10000 % rem. (% rem.): 0

compound: CCN(CC)C(=O)c1ccc(C(c2cccc3cccnc23)N2CCN(Cc3ccco3)CC2)cc1 (stereo not drawn)
MLM 10000 % rem. (% rem.): 0

compound: CCN(CC)C(=O)c1ccc(C(c2cccc3cccnc23)N2CCN(Cc3ccsc3)CC2)cc1 (stereo not drawn)
MLM 10000 % rem. (% rem.): 1.667
